Listing of entries alongside the reported MIC.
- System: Enterococcus faecalis
- procedure.details: Antimicrobial activity against Vancomycin-resistant Enterococcus faecalis ATCC 51299
- Type: functional
endpoint: MIC (µg/mL)

1) CN(C)C(=N)c1ccc2cc(-c3ccc(Oc4ccc(-c5cc6ccc(C(=N)N(C)C)cc6[nH]5)nc4)cc3)[nH]c2c1 | 0.5
2) CC(C)NC(=N)c1ccc2cc(-c3ccc(Oc4ccc(-c5cc6ccc(C(=N)NC(C)C)cc6[nH]5)nc4)cc3)[nH]c2c1 | 0.5
3) CNC(=N)c1ccc2cc(-c3ccc(Oc4ccc(-c5cc6ccc(C(=N)NC)cc6[nH]5)c(Cl)c4)cc3)[nH]c2c1 | 16
4) C[C@H]1COc2c(N3CCN(C)CC3)c(F)cc3c(=O)c(C(=O)O)cn1c23.C[C@H]1COc2c(N3CCN(C)CC3)c(F)cc3c(=O)c(C(=O)O)cn1c23.O | 1
5) CNC(=N)c1ccc2cc(-c3ccc(Oc4ccc(-c5cc6ccc(C(=N)NC)cc6[nH]5)c(OC)c4)cc3)[nH]c2c1 | 0.5
6) COc1cc(Oc2ccc(-c3cc4ccc(C(=N)N(C)C)cc4[nH]3)cc2)ccc1-c1cc2ccc(C(=N)N(C)C)cc2[nH]1 | 0.5
7) CNC(=N)c1ccc2cc(-c3ccc(Oc4ccc(-c5cc6ccc(C(=N)NC)cc6[nH]5)cn4)cc3)[nH]c2c1 | 1
8) CC(C)NC(=N)c1ccc2cc(-c3ccc(Oc4ccc(-c5cc6ccc(C(=N)NC(C)C)cc6[nH]5)cn4)cc3)[nH]c2c1 | 1
9) C/N=C(\NC)c1ccc2cc(-c3ccc(Oc4ccc(-c5cc6ccc(C(=N)NC)cc6[nH]5)cc4)cc3)[nH]c2c1 | 0.25
